Test: Half life in rat at 2 mg/kg, iv
Format: ADME, organism-based
Details: in vivo
metric: half-life (h)

> print(dat)
                           structure.string     metric  quantitative.result
1  O=C(N1CC[C@@]2(S(=O)(=O)c3ccc(F)cc3)c3ccc(C(F)(C(F)(F)F)C(F)(F)F)cc3CC[C@@H]12)C1(O)CCS(=O)(=O)CC1  half-life                    7

---

Experiment: Half life in mouse liver microsomes
Assay type: ADME, Microsome
metric: half-life

> print(dat)
                           structure.string  result
1  O=C(O)[C@H]1CC[C@H](C(=O)N2CC[C@@]3(S(=O)(=O)c4ccc(F)cc4)c4ccc(C(F)(C(F)(F)F)C(F)(F)F)cc4NC[C@@H]23)CC1   > 2 h
2  O=C(O)[C@H]1CC[C@H](C(=O)N2CC[C@@]3(S(=O)(=O)c4cccc(F)c4)c4ccc(C(F)(C(F)(F)F)C(F)(F)F)cc4CC[C@@H]23)CC1  1.65 h
3  O=C(O)C12CCC(C(=O)N3CC[C@@]4(S(=O)(=O)c5ccc(F)cc5)c5ccc(C(F)(C(F)(F)F)C(F)(F)F)cc5CC[C@@H]34)(CC1)CC2   > 2 h
4  O=C(O)[C@H]1CC[C@H](C(=O)N2CC[C@@]3(S(=O)(=O)c4cccc(Cl)c4)c4ccc(C(F)(C(F)(F)F)C(F)(F)F)cc4CC[C@@H]23)CC1   > 2 h
5  Cc1cccc(S(=O)(=O)[C@@]23CCN(C(=O)[C@H]4CC[C@H](C(=O)O)CC4)[C@@H]2CCc2cc(C(F)(C(F)(F)F)C(F)(F)F)ccc23)c1   > 2 h
6  O=C(O)[C@H]1CC[C@H](C(=O)N2CC[C@@]3(S(=O)(=O)c4ccc(F)cc4)c4ccc(C(F)(C(F)(F)F)C(F)(F)F)cc4OC[C@@H]23)CC1   > 2 h
